# PROTOCOL_DETAILS: gradient 5% acetonitrile 3 min, to 50% in 2 min, to 85% in 15 min, held 3 min, 100 µL/min
# CONDITIONS_USED: column: Zorbax Extend-C18 2.1 x 50 mm; eluents: water / acetonitrile, 0.1% formic acid
PARAMETER: RP-LC retention time (s)

{"columns": ["COMPOUND", "RP-LC retention time [s]"],
 "data": [
  ["O=c1c(NCCN2CCCC2)nc2ccncc2n1Cc1ccccc1", 876],
  ["Cc1cc(N2CCOCC2)nc(N2CCN(C(=O)c3c(F)cccc3F)CC2)n1", 1050],
  ["CCn1ncc2ccc(C(=O)NC(C)C)cc21", 702],
  ["Cn1c(=O)c2cc(C(=O)Nc3ccc4c(c3)OCO4)cnc2n(-c2ccc(F)cc2)c1=O", 850],
  ["CC(C)c1ccc(NC(=O)CC2=C3CCCCC3N(C(C)C)C2=O)cc1 (stereo not given)", 1070],
  ["CCc1nc2onc(C)c2c(=O)n1CC(=O)NCC(C)c1ccccc1 (stereo not given)", 832],
  ["Cn1c(=O)n(C)c2cc(S(=O)(=O)C3CCCCC3)c(NC(=O)c3ccccc3F)cc21", 940],
  ["CCOc1ccc(CC(=O)Nc2ccc(-c3nc(-c4ccccc4)co3)cc2)cc1OCC", 1150],
  ["COc1ccc(N2CC(c3nc(-c4ccc(C)cc4)no3)CC2=O)cc1OC (stereo not given)", 866],
  ["N#Cc1ccc(CN2C[C@@H](CO)[C@H](c3nc(C4CC4)no3)C2)cc1", 600],
  ["CCn1nccc1C(=O)NC1CCN(c2cc(-c3ccccc3)[nH]n2)CC1", 688],
  ["Cc1cccc2c(=O)n(C3CCN(C(=O)Nc4ccc(F)cc4F)CC3)cnc12", 770],
  ["COc1ccc(C(CC(=O)N2CCCCC2)N2Cc3ccccc3C2=O)cc1OC (stereo not given)", 771],
  ["Cc1nc(C(=O)Nc2ccc(F)cc2)c(C)o1", 848],
  ["CC(C)Cn1c(=O)c(N2CCN(C(=O)NCc3ccc(F)cc3)CC2)nc2ccncc21", 668],
  ["COC(=O)c1nnn(-c2cccc(Cl)c2C)c1C(=O)OC", 936],
  ["Cc1ccccc1NC(=O)C1CCN(S(C)(=O)=O)c2ccccc2O1 (stereo not given)", 867],
  ["COc1cc(OC)c(NC(=O)N2CC(n3cnnc3-c3ccccc3)C2)cc1Cl", 703],
  ["O=C(CCCS(=O)(=O)Cc1ccccc1)NCc1ccccc1", 694],
  ["CCCn1cc(CCNC(=O)Nc2cccc(Cl)c2)c2cccnc21", 828]
]}

* * *

# PROTOCOL_DETAILS: gradient 5% acetonitrile 3 min, to 50% in 2 min, to 85% in 15 min, held 3 min, 100 µL/min
# CONDITIONS_USED: column: Zorbax Extend-C18 2.1 x 50 mm; eluents: water / acetonitrile, 0.1% formic acid
PARAMETER: RP-LC retention time (s)

Observe how each entry below is paired with its result.
{"columns": ["MOLECULE", "OBSERVED_MEASUREMENT"],
 "data": [
  ["CCCS(=O)(=O)N1CCN(C(=O)c2cc(-c3ccc(OC)cc3)n[nH]2)CC1", 745],
  ["O=C(NC1CC1)C1CCCN(C(=O)c2cc(-c3ccccn3)n[nH]2)C1 (stereo not given)", 577],
  ["Cc1onc(-c2ccccc2Cl)c1C(=O)Nc1cc(C(=O)N2CCCC2)cn(C)c1=O", 699]
]}

I. CCC(=O)N(CC)c1nc(-c2ccc(Br)cc2)cs1
II. O=C(Nc1cccc(-c2cn3cccnc3n2)c1)c1ccccc1[N+](=O)[O-]
Lab note: check whether I or II shows the higher recorded RP-LC retention time. Selection: enter the item's label.
I
(I: 1250 s, II: 637 s)
